Across several studies, compounds have been characterized by their IC50 on BTK (Homo sapiens, UniProt Q06187); a selection follows.
Sequence (Q06187 whole entry): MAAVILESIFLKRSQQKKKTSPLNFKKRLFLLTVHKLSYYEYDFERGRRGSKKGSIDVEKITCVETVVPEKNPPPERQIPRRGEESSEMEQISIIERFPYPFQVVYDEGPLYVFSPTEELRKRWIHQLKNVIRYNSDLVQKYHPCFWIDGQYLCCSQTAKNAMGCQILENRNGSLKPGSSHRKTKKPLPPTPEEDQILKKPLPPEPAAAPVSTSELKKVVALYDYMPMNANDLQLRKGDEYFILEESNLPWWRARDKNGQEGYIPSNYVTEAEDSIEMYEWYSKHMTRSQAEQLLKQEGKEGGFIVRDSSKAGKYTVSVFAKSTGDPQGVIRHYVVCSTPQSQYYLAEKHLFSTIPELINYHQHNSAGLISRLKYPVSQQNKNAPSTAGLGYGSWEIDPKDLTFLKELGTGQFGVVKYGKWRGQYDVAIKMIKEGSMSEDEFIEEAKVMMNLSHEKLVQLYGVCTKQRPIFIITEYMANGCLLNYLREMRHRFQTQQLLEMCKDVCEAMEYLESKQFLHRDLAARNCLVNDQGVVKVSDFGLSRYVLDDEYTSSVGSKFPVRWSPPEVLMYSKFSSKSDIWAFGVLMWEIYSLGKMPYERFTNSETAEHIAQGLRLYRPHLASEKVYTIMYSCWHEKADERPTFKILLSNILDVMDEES

# example entries with known answers
compound | measurement-target | recorded-result
O=C(CNC(Cc1ccccc1)c1ccccc1)N[C@@H]1CCCN(c2ncnc3[nH]ccc23)C1 (stereo partly drawn) | BTK (Homo sapiens, UniProt Q06187) | 1000 to 10000 nM
Cc1cnc(NC(=O)c2ccc(-n3c(=O)n(-c4cccc(N(C)C(=O)/C=C/CN(C)C)c4)c4ncnc(N)c43)cc2)s1 | BTK (Homo sapiens, UniProt Q06187) | < 100 nM
C=CC(=O)N1CC2CC1C(n1nc(-c3ccc(C(=O)Nc4cnn(C)c4)cc3)c3c(N)ncnc31)C2 (stereo not drawn) | BTK (Homo sapiens, UniProt Q06187) | 143 nM
Cc1cc(-c2ccnc(Nc3cnn([C@@H]4CCNC4)c3)n2)ccc1CNC(=O)c1cnc(C(C)(C)C)s1 | BTK (Homo sapiens, UniProt Q06187) | < 10 nM
COCCn1cc(Nc2nccc(-c3ccc(CNC(=O)N4CCC(C(C)C)C4)c(C(F)(F)F)c3)n2)cn1 (stereo not drawn) | BTK (Homo sapiens, UniProt Q06187) | < 10 nM

Query block: // Input: `Cc1cc(-c2ncnc3cc(C4CCS(=O)(=O)CC4)n(C)c23)ccc1CNC(=O)c1cnc(C(C)(C)C)s1` . Output its IC50 only.
Result block: 10 to 99 nM

Query block: // Input: `CC#CC(=O)N[C@H]1C[C@@H](O)CN(c2c(F)cc(C(N)=O)c3[nH]c4c(c23)CCCCC4)C1` . Output its IC50 only.
Result block: 10 to 100 nM

Query block: // Input: `COc1cc(NC(=O)/C=C/CN(C)C2CC2)cc(-n2c(=O)n(-c3ccc(Oc4ccccc4)cc3C)c3c(N)ncnc32)c1` . Output its IC50 only.
Result block: < 100 nM

Query block: // Input: `O=C(CNc1ccccc1C(=O)N1CCOCC1)N[C@@H]1CCCN(c2ncnc3[nH]ccc23)C1` . Output its IC50 only.
Result block: 100 to 999 nM

Query block: // Input: `Cc1cc(-c2ccnc(Nc3cnn(C(C)C)c3)n2)ccc1CNC(=O)N1CC(OC(C)(C)C)C1` . Output its IC50 only.
Result block: < 10 nM

Query block: // Input: `CN(C)C/C=C/C(=O)Nc1cccc(Nc2cc(Nc3ccc(OCc4cccc(F)c4)c(Cl)c3)ncn2)c1` . Output its IC50 only.
Result block: 100 to 1000 nM

Query block: // Input: `CCOc1ccc(-c2nn(C3Cc4ccccc4C3)c3ncnc(N)c23)cc1OC` . Output its IC50 only.
Result block: 392 nM

Query block: // Input: `Cc1ccc(-n2c(=O)n(-c3ccc(Oc4ccccc4)cc3)c3c(N)ncnc32)cc1N(C)C(=O)/C=C/CN(C)C1CC1` . Output its IC50 only.
Result block: < 100 nM

Query block: // Input: `CN(C1CCCCC1)S(=O)(=O)c1ccccc1NCC(=O)N[C@@H]1CCCN(c2ncnc3[nH]ncc23)C1` . Output its IC50 only.
Result block: < 100 nM

Query block: // Input: `C=CC(=O)N[C@H]1CC[C@@H](n2cc(-c3ccc(Oc4ccccc4F)cc3)c3c(N)n[nH]c(=O)c32)CC1` . Output its IC50 only.
Result block: 10 to 1000 nM

----------
Across several studies, molecules have been characterized by their IC50 on BTK (Homo sapiens, UniProt Q06187); a selection follows.

# example entries with known answers
cpd-smiles | IC50
Cc1cc(-c2ccnc(Nc3cnn(C)c3)n2)ccc1CNC(=O)C1CCN(C)CC1 | > 10000 nM
C=CC(=O)N1CC[C@H](Nc2nccc(Nc3nc4ccc(Oc5ccccc5)nc4s3)n2)C1 | 86.6 nM
C=CC(=O)N1CCc2c(cccc2-c2c(F)cc(C(N)=O)c3[nH]c4c(c23)CC2(CCOCC2)CC4)C1 | 10 to 100 nM
Cn1cc(-c2cn3nccc3c(-c3ccc(CN4CCN(CC(C)(C)C)CC4=O)cc3)n2)cn1 | 1 to 10 nM
CC(C)c1ccccc1NCC(=O)N[C@@H]1CCCN(c2ncnc3[nH]ncc23)C1 | < 100 nM

Query block: // Input: `C=CC(=O)Nc1cccc(Nc2cc(Oc3ccc(Oc4ccccc4)cc3)ncn2)c1` . Output its IC50 only.
Result block: 100 to 1000 nM

Query block: // Input: `C[C@H]1CNC(=O)c2cnn3ccc(nc23)N[C@H](C)c2cc(F)cc(-c3cnn(C)c3)c2O1` . Output its IC50 only.
Result block: 60 nM

Query block: // Input: `CN(C(=O)/C=C/CN(C)C1CC1)c1cccc(-n2c(=O)n(-c3ccc(Oc4ccc(O)cc4)cc3)c3c(N)ncnc32)c1` . Output its IC50 only.
Result block: < 100 nM

----------
Across several studies, compounds have been characterized by their IC50 on BTK (Homo sapiens, UniProt Q06187); a selection follows.

# example entries with known answers
compound | recorded-result
Cn1cc(-c2cc3nccn3c(-c3ccc(CNC(=O)c4nnc(C(C)(C)C)o4)cc3)n2)cn1 | 10 to 1000 nM
CN(C(=O)/C=C/CN(C)C1CCC1)c1ccc(-n2c(=O)n(-c3ccc(Oc4ccccc4)cc3)c3c(N)ncnc32)cc1 | < 100 nM
CC#CC(=O)N1CCC=C(c2cnc(C(N)=O)c3[nH]c4c(c23)CCCC4)C1 | 10 to 100 nM
C=CC(=O)N1C(c2nc(-c3ccc(C(=O)Nc4cc(Cl)ccn4)cc3)c3c(N)nccn23)CC2CC21 (stereo not shown) | 12 nM
Cc1cc(-c2ncnc3c2cc(-c2cnn(C)c2)n3C)ccc1CNC(=O)c1cnc(C(C)(C)C)s1 | 10 to 99 nM
O=C(N[C@@H]1CCCN(c2ncnc3[nH]ccc23)C1)C(Nc1ccccc1)C(F)(F)F (stereo partly shown) | 1000 to 10000 nM

Turning to the following compound.
Query block: // Input: C#CC(=O)N1CC2CC1C(n1nc(-c3cccc(C(=O)Nc4ccccc4)c3)c3c(N)ncnc31)C2 (stereo not shown) . Output its IC50 only.
Result block: 6.9 nM

----------
Across several studies, compounds have been characterized by their IC50 on BTK (Homo sapiens, UniProt Q06187); a selection follows.

# example entries with known answers
compound | measurement-target | IC50
Nc1n[nH]c(=O)c2c1c(-c1ccc(Oc3ccccc3)cc1)cn2[C@@H]1CCCN(C(=O)/C=C/CN2CCC2)C1 | BTK (Homo sapiens, UniProt Q06187) | ≤ 10 nM
C=CC(=O)N1CCC[C@@H](Nc2nc(Nc3cnn(C)c3)nc3ccsc23)C1 | BTK (Homo sapiens, UniProt Q06187) | ≤ 50 nM
Cn1cc(-c2cn3nccc3c(-c3ccc(CNC(=O)c4nnn(C(C)(C)C)n4)c(F)c3F)n2)cn1 | BTK (Homo sapiens, UniProt Q06187) | < 1 nM
Cc1cc(-c2cc(Nc3cc4n(n3)CCOC4)ncn2)ccc1CNC(=O)N1CCC(C(C)(C)C)C1 (stereo not drawn) | BTK (Homo sapiens, UniProt Q06187) | < 10 nM
CCCC(=O)N1CC[C@@H](n2cc(-c3ccc(Oc4c(F)cccc4F)cc3)c3c(N)n[nH]c(=O)c32)C1 | BTK (Homo sapiens, UniProt Q06187) | 1000 to 100000 nM
C=CC(=O)N1CCc2c(cccc2-c2c(F)cc(C(N)=O)c3[nH]c4c(c23)CC2(CCOC2)CC4)C1 (stereo not drawn) | BTK (Homo sapiens, UniProt Q06187) | 10 to 100 nM
CC[C@@H](Nc1ccccc1C(C)C)C(=O)N[C@@H]1CCCN(c2ncnc3[nH]ccc23)C1 | BTK (Homo sapiens, UniProt Q06187) | 100 to 999 nM
C=CC(=O)Nc1cccc(-c2cc(-c3cccnc3)cc3cnc(N)nc23)c1 | BTK (Homo sapiens, UniProt Q06187) | < 100 nM
N#C/C(=C\C1CC1)C(=O)N1CC(n2cc(C(N)=O)c(-c3ccc(Oc4ccccc4)cc3)n2)C1 | BTK (Homo sapiens, UniProt Q06187) | ≥ 1000 nM
CNC(=O)/C(C#N)=C/c1cccc(-n2c(=O)n(-c3ccc(Oc4ccccc4)cc3)c3c(N)ncnc32)c1 | BTK (Homo sapiens, UniProt Q06187) | < 100 nM

Query block: // Input: `C=CC(=O)N1CCC[C@@H](n2nc(-c3ccc(Oc4ccccc4)cc3)c3cnc(N)nc32)C1` . Output its IC50 only.
Result block: < 100 nM

Query block: // Input: `Cc1c(CNC(=O)c2noc(C(C)(C)C)n2)ccc(-c2nc(-c3cnn(C)c3)cc3nccn23)c1F` . Output its IC50 only.
Result block: < 1 nM

Query block: // Input: `C=CC(=O)N1CCC[C@@H](Nc2nccc(Nc3nc4ccc(Oc5ccccc5)nc4s3)n2)C1` . Output its IC50 only.
Result block: 367 nM

Query block: // Input: CC(=O)Nc1cccc(NCC(=O)NC2CCCN(c3ncnc4[nH]ccc34)C2)c1 (stereo not drawn) . Output its IC50 only.
Result block: > 10000 nM

Query block: // Input: `CC(C)(C)[C@@H](Nc1cc(Cl)cc(Cl)c1)C(=O)N[C@@H]1CCCN(c2ncnc3[nH]ccc23)C1` . Output its IC50 only.
Result block: < 100 nM

Query block: // Input: `Nc1n[nH]c(=O)c2c1c(-c1ccc(Oc3ccccc3)cc1)cn2[C@@H]1CCCN(C(=O)C2CC2)C1` . Output its IC50 only.
Result block: 10 to 1000 nM

Query block: // Input: `Cc1ccnc(NC(=O)c2ccc(-c3nn([C@@H]4CCN(C(=O)/C=C/CNC5CC5)C4)c4ncnc(N)c34)cc2)c1` . Output its IC50 only.
Result block: < 1 nM

Query block: // Input: `Cc1cc(-c2ccnc(Nc3cc4n(n3)CCNC4)n2)ccc1CNC(=O)c1cnc(C(C)(C)C)s1` . Output its IC50 only.
Result block: < 10 nM

Query block: // Input: O=C(CNC1CCc2ccccc21)NC1CCCN(c2ncnc3[nH]ccc23)C1 (stereo not drawn) . Output its IC50 only.
Result block: > 10000 nM
